Just for reference, patent US11524962B2 is where these values come from.

assay name: In vivo pharmacokinetic study in rat
setup conditions: Sprague-Dawley (SD), blood, iv; rat SD male, i.v. 0.2 mg/kg, cassette
readout: half-life (min)

> print(dat)
                                   compound    readout  value
1  Nc1ncnc2c1c(F)cn2[C@@H]1O[C@H]([C@H](O)c2ccc3c(c2)CC3)[C@@H](O)[C@H]1O [Example 6]  half-life   27.6

====

assay name: In vivo pharmacokinetic study in rat
setup conditions: Sprague-Dawley (SD), blood, iv; rat SD female, i.v. 1 mg/kg
readout: clearance (mL/min/kg)

> print(dat)
                                smiles.repr  measurement.units  value
1  Cc1ncnc2c1ccn2[C@@H]1O[C@H]([C@H](O)c2ccc3c(c2)CC3)[C@@H](O)[C@H]1O          mL/min/kg   37.2

====

assay name: In vivo brain exposure study in mouse
setup conditions: po; mouse CD-1 male, 10 mg/kg p.o., brain, 1 h; read-out: Brain-1 h
Experimental: In a mouse (CD-1, male) brain exposure cassette study, Examples 2 and 6 were dosed together at 10 mg/kg each (0.5% Na CMC+0.5% Tween80, solution) via oral gauge (p.o.). At 3 time points (N=3), 2h, 4h and 8h, plasma and brain samples were analyzed for average drug concentrations. In a mouse (CD-1, male) brain exposure study, Examples 11 was dosed at 10 mg/kg each (0.5% Na CMC+0.5% Tween80, solution) via oral gauge (p.o.). […]
readout: concentration at 1 h (ng/g)

> print(dat)
                                smiles.repr               readout  value
1  Cc1ncnc2c1ccn2[C@@H]1O[C@H]([C@H](O)c2ccc3c(c2)CC3)[C@@H](O)[C@H]1O  concentration at 1 h    188

====

System: U-87 MG cells
assay name: Cell proliferation assay in U-87 MG cells
Format: cell-based
setup conditions: Homo sapiens, 240 h, day 10, read-out: Prolif_U87 IC50
pIC50: −log10 of the molar value.
A collection of compounds and their measured pIC50
readout: pIC50

> print(dat)
                                   compound  value
1  Nc1ncnc2c1c(F)cn2[C@@H]1O[C@H]([C@H](O)c2ccc3c(c2)CC3)[C@@H](O)[C@H]1O [Example 6]   6.94
2  O[C@@H]1[C@H](O)[C@@H]([C@H](O)c2ccc3c(c2)CC3)O[C@H]1n1ccc2c(CF)ncnc21 [Example 49]   5.00
3  Cc1ncnc2c1ccn2[C@@H]1O[C@H]([C@](C)(O)c2ccc3c(c2)CC3)[C@@H](O)[C@H]1O [Example 9]   6.41

====

system tested: PRMT5/MEP50 complex (Homo sapiens (Human))
Sequence (O14744 whole entry): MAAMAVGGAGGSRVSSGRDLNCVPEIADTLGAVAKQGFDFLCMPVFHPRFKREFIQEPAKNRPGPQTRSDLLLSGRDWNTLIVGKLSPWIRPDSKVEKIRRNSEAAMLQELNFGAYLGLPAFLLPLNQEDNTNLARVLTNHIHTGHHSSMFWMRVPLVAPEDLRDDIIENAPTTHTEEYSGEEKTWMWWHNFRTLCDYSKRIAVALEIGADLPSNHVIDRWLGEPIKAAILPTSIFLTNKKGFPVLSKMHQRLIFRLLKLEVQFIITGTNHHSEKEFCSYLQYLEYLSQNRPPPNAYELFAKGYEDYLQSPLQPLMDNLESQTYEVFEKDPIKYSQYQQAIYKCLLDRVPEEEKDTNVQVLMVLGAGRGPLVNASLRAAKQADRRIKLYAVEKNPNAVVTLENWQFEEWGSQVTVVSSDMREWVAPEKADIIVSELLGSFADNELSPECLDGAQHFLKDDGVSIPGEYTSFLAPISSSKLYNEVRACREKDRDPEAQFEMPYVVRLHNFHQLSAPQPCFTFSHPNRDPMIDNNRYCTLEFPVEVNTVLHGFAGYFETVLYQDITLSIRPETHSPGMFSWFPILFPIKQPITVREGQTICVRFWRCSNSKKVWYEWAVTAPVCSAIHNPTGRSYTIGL
Sequence (Q9BQA1 whole entry partner): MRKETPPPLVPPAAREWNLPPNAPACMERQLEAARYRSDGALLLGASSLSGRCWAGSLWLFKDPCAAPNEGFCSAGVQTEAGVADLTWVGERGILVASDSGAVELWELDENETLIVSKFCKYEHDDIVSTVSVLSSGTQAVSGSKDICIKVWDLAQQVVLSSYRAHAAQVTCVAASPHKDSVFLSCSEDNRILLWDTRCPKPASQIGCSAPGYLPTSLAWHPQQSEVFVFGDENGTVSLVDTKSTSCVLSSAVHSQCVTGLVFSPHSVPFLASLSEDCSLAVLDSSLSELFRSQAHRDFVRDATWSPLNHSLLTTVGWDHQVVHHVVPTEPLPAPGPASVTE
assay name: Flash plate assay
Type: biochemical
setup conditions: read-out: Flash Plate IC50
pIC50: −log10 of the molar value.
Quick reference: pIC50 of the listed items.
readout: pIC50

> print(dat)
                                   compound  value
1  Cc1ncnc2c1ccn2[C@@H]1O[C@H]([C@H](O)c2ccc3c(c2)CCC3)[C@@H](O)[C@H]1O [Example 44]   7.63
2  Nc1ncnc2c1ccn2[C@@H]1O[C@H]([C@H](O)c2ccc3c(c2)CC3)[C@@H](O)[C@H]1O [Example 2]   8.39
3  CCCCc1ncnc2c1ccn2[C@@H]1O[C@H]([C@H](O)c2ccc3c(c2)CC3)[C@@H](O)[C@H]1O [Example 42]   6.41
4  CC(C)c1ncnc2c1ccn2[C@@H]1O[C@H]([C@H](O)c2ccc3c(c2)CC3)[C@@H](O)[C@H]1O [Example 41]   6.64

====

Property: concentration at 4 h; scope: individual compounds
assay name: In vivo brain exposure study in mouse
setup conditions: po; mouse CD-1 male, 10 mg/kg p.o., cassette, brain, 4 h; read-out: Brain-4 h
readout: concentration at 4 h (ng/g)

> print(dat)
                                smiles.repr               readout  value
1  Nc1ncnc2c1ccn2[C@@H]1O[C@H]([C@H](O)c2ccc3c(c2)CC3)[C@@H](O)[C@H]1O  concentration at 4 h    174
2  Nc1ncnc2c1c(F)cn2[C@@H]1O[C@H]([C@H](O)c2ccc3c(c2)CC3)[C@@H](O)[C@H]1O  concentration at 4 h   45.9

====

System: Symmetric Di-Methyl Arginine (sDMA) marks in Granta-519 cells
assay name: sDMA Western blot / In Cell Western in Granta-519 cells
Type: cell-based
setup conditions: Homo sapiens, 72 h; Granta-519, 3 days; read-out: sDMA_Granta IC50
pIC50: −log10 of the molar value.
readout: pIC50

> print(dat)
                                smiles.repr  readout  value
1  COCCc1ncnc2c1ccn2[C@@H]1O[C@H]([C@H](O)c2ccc3c(c2)CC3)[C@@H](O)[C@H]1O    pIC50   6.47
2  Cc1ncnc2c1ccn2[C@@H]1O[C@H]([C@H](O)c2nc3c(s2)CCC3)[C@@H](O)[C@H]1O    pIC50   5.77
3  C[C@@](O)(c1ccc2c(c1)CC2)[C@H]1O[C@@H](n2ccc3c(N)ncnc32)[C@H](O)[C@@H]1O    pIC50   7.66
4  OCCc1ncnc2c1ccn2[C@@H]1O[C@H]([C@H](O)c2ccc3c(c2)CC3)[C@@H](O)[C@H]1O    pIC50   5.28

====

assay name: In vivo pharmacokinetic study in rat
setup conditions: Sprague-Dawley (SD), blood, iv; rat SD male, i.v. 0.2 mg/kg, cassette; read-out: Vss
readout: Vd

> print(dat)
                                smiles.repr  readout      value
1  Nc1ncnc2c1c(F)cn2[C@@H]1O[C@H]([C@H](O)c2ccc3c(c2)CC3)[C@@H](O)[C@H]1O       Vd  1.81 L/kg

====

assay name: In vivo pharmacokinetic study in rat
setup conditions: Sprague-Dawley (SD), blood, iv; rat SD male, i.v. 1 mg/kg
readout: clearance

> print(dat)
                                smiles.repr           value
1  Cc1ncnc2c1ccn2[C@@H]1O[C@H]([C@H](O)c2ccc3c(c2)CC3)[C@@H](O)[C@H]1O  77.5 mL/min/kg

====

assay name: In vivo pharmacokinetic study in rat
setup conditions: Sprague-Dawley (SD), blood, po; rat SD female, p.o. 2 mg/kg, cassette (n=4)
readout: bioavailability

> print(dat)
                                smiles.repr   value
1  Nc1ncnc2c1c(F)cn2[C@@H]1O[C@H]([C@H](O)c2ccc3c(c2)CC3)[C@@H](O)[C@H]1O  > 100%

====

assay name: In vivo pharmacokinetic study in rat
setup conditions: Sprague-Dawley (SD), blood, iv; rat SD male, i.v. 0.5 mg/kg, cassette; read-out: Vss
readout: Vd (L/kg)

> print(dat)
                                   compound  value
1  C[C@@](O)(c1ccc2c(c1)CC2)[C@H]1O[C@@H](n2ccc3c(N)ncnc32)[C@H](O)[C@@H]1O [Example 1]   1.36

====

assay name: In vivo brain exposure study in mouse
setup conditions: po; mouse CD-1 male, 10 mg/kg p.o., plasma, 1 h; read-out: Plasma-1 h
readout: concentration at 1 h (ng/mL)

> print(dat)
                                smiles.repr               readout  measurement.units  value
1  Cc1ncnc2c1ccn2[C@@H]1O[C@H]([C@H](O)c2ccc3c(c2)CC3)[C@@H](O)[C@H]1O  concentration at 1 h              ng/mL    207

====

Test system: Granta-519 cells
assay name: Cell proliferation assay in Granta-519 cells
Type: cell-based
setup conditions: Homo sapiens, 240 h; Granta-519, day 10; read-out: Prolif_Granta IC50
pIC50: −log10 of the molar value.
Parameter pIC50: see the listing below.
readout: pIC50

> print(dat)
                                smiles.repr  value
1  Nc1ncnc2c1c(F)cn2[C@@H]1O[C@H]([C@H](O)c2ccc3c(c2)CC3)[C@@H](O)[C@H]1O   7.17
2  OCCc1ncnc2c1ccn2[C@@H]1O[C@H]([C@H](O)c2ccc3c(c2)CC3)[C@@H](O)[C@H]1O   5.00
3  O[C@@H]1[C@H](O)[C@@H]([C@H](O)c2ccc3c(c2)CC3)O[C@H]1n1ccc2c(Cl)ncnc21   4.30
4  Nc1ncnc2c1c(Br)cn2[C@@H]1O[C@H]([C@H](O)c2ccc3c(c2)CC3)[C@@H](O)[C@H]1O   5.96
5  Cc1ncnc2c1ccn2[C@@H]1O[C@H]([C@H](O)c2nc3c(s2)CCC3)[C@@H](O)[C@H]1O   6.40
6  Nc1ncnc2c1ccn2[C@@H]1O[C@H]([C@H](O)c2ccc3c(c2)CC3)[C@@H](O)[C@H]1O   7.46
7  C[C@@](O)(c1ccc2c(c1)CC2)[C@H]1O[C@@H](n2ccc3c(N)ncnc32)[C@H](O)[C@@H]1O   7.42
8  CNc1ncnc2c1ccn2[C@@H]1O[C@H]([C@H](O)c2ccc3c(c2)CC3)[C@@H](O)[C@H]1O   6.00
9  Cc1ncnc2c1ccn2[C@@H]1O[C@H]([C@H](O)c2ccc3c(c2)CC3)[C@@H](O)[C@H]1O   7.04
